assay: Pharmacokinetics of Compound 1 in mouse plasma versus kidney; type: in vivo; details: tissues including kidney, relative to plasma, subcutaneous, 4 mg/kg, species not printed at b200, read-out: concentrations in tissues including the kidneys relative to plasma
assay-endpoint: Kp

Ask: Recorded Kp of CN(C)c1cc(CNCC(C)(C)C)c(O)c2c1C[C@H]1C[C@H]3[C@H](N(C)C)C(O)=C(C(N)=O)C(=O)[C@@]3(O)C(O)=C1C2=O [Compound 1] , please.
Reply: ~4

###

tested on: E. cloacae CeftazR; experiment: In vitro MIC, 2010 surveillance isolates; format: cell-based; details: N America; CLSI breakpoints
Assignment: determine reported % R (resistance) for the given compounds.
Just the number in %, nothing appended.

Ask: # input compound: "C[C@H]1c2cccc(O)c2C(=O)C2=C(O)[C@]3(O)C(=O)C(C(N)=O)=C(O)[C@@H](N(C)C)[C@@H]3[C@@H](O)[C@@H]21" ; wanted: its % R (resistance)
Reply: 28.6

Ask: # input compound: "CO/N=C(\C(=O)N[C@@H]1C(=O)N2C(C(=O)O)=C(CSc3nc(=O)c(=O)[nH]n3C)CS[C@H]12)c1csc(N)n1" ; wanted: its % R (resistance)
Reply: 100

Ask: Could you share which % R (resistance) value was measured for "C[C@@H](O)[C@H]1C(=O)N2C(C(=O)O)=C(SCCN=CN)C[C@H]12" ?
Reply: 11.7

###

assay: Phase 1b study in female adults with cystitis, plasma PK; assay type: in vivo, human; settings: female, human, plasma, oral, 300 mg, plasma, Day 1, PO300; read-out: AUC(0-12 hrs), Geo. Mean
assay-endpoint: AUC(0-t) (ng·h/mL)
Provide only the numeric value, understood in ng·h/mL.

Ask: Can you share its AUC(0-t)? I mean this compound: CN(C)c1cc(CNCC(C)(C)C)c(O)c2c1C[C@H]1C[C@H]3[C@H](N(C)C)C(O)=C(C(N)=O)C(=O)[C@@]3(O)C(O)=C1C2=O [Compound 1]
Reply: 6150

###

Please provide measured MIC90 for the entries that follow.
tested on: MSSA; assay: In vitro MIC, 2010 surveillance isolates; type: cell-based; conditions: N America; N=2373
Write it as a number; the unit µg/mL goes unstated.

Ask: I would be grateful if you could share the reported MIC90 for "CN(C)c1cc(NC(=O)CNC(C)(C)C)c(O)c2c1C[C@H]1C[C@H]3[C@H](N(C)C)C(O)=C(C(N)=O)C(=O)[C@@]3(O)C(O)=C1C2=O" .
Reply: 0.25

Ask: I am curious: what MIC90 value has been reported for "CN(C)c1cc(CNCC(C)(C)C)c(O)c2c1C[C@H]1C[C@H]3[C@H](N(C)C)C(O)=C(C(N)=O)C(=O)[C@@]3(O)C(O)=C1C2=O" ?
Reply: 0.25

Ask: Which value of MIC90 has been reported for "C[C@H]1c2cccc(O)c2C(=O)C2=C(O)[C@]3(O)C(=O)C(C(N)=O)=C(O)[C@@H](N(C)C)[C@@H]3[C@@H](O)[C@@H]21" in the records?
Reply: 0.12

Ask: // lookup MIC90 for "C[C@H]1COc2c(N3CCN(C)CC3)c(F)cc3c(=O)c(C(=O)O)cn1c23"
Reply: 4

Ask: Please give the measured MIC90 for this compound: "CO/N=C(\C(=O)N[C@@H]1C(=O)N2C(C(=O)O)=C(CSc3nc(=O)c(=O)[nH]n3C)CS[C@H]12)c1csc(N)n1"
Reply: 4

Ask: I would be grateful if you could share the reported MIC90 for "CN[C@H](CC(C)C)C(=O)N[C@H]1C(=O)N[C@@H](CC(N)=O)C(=O)N[C@H]2C(=O)N[C@H]3C(=O)N[C@H](C(=O)N[C@H](C(=O)O)c4cc(O)cc(O)c4-c4cc3ccc4O)[C@H](O)c3ccc(c(Cl)c3)Oc3cc2cc(c3O[C@@H]2O[C@H](CO)[C@@H](O)[C@H](O)[C@H]2O[C@H]2C[C@](C)(N)[C@H](O)[C@H](C)O2)Oc2ccc(cc2Cl)[C@H]1O" .
Reply: 1

###

tested on: Acinetobacter spp; assay: In vitro MIC, 2010 surveillance isolates; assay type: cell-based; conditions: N America; N=42
assay-endpoint: MIC90 (µg/mL)
Use µg/mL as the unit, but write only the number.

Ask: Can you look up the measured MIC90 of "CN(C)c1cc(NC(=O)CNC(C)(C)C)c(O)c2c1C[C@H]1C[C@H]3[C@H](N(C)C)C(O)=C(C(N)=O)C(=O)[C@@]3(O)C(O)=C1C2=O" for me?
Reply: 0.5

Ask: MIC90 lookup needed for "CN(C)c1cc(CNCC(C)(C)C)c(O)c2c1C[C@H]1C[C@H]3[C@H](N(C)C)C(O)=C(C(N)=O)C(=O)[C@@]3(O)C(O)=C1C2=O" , thanks.
Reply: 2

Ask: Recorded MIC90 of "C[C@@H](O)[C@H]1C(=O)N2C(C(=O)O)=C(SCCN=CN)C[C@H]12" , please.
Reply: 8

Ask: Entry under review: "NCC[C@H](O)C(=O)N[C@@H]1C[C@H](N)[C@@H](O[C@H]2O[C@H](CN)[C@@H](O)[C@H](O)[C@H]2O)[C@H](O)[C@H]1O[C@H]1O[C@H](CO)[C@@H](O)[C@H](N)[C@H]1O" . Reported MIC90?
Reply: 8

###

Can you tell me MIC90 for the items I'm about to list?
test system: E. cloacae CeftazS; assay: In vitro MIC, 2010 surveillance isolates; assay type: cell-based; settings: N America; N=210
Write down the numeric answer in µg/mL and omit the unit.

Ask: Which value of MIC90 has been reported for "C[C@H]1c2cccc(O)c2C(=O)C2=C(O)[C@]3(O)C(=O)C(C(N)=O)=C(O)[C@@H](N(C)C)[C@@H]3[C@@H](O)[C@@H]21" in the records?
Reply: 4

Ask: I would be grateful if you could share the reported MIC90 for "CN(C)c1cc(NC(=O)CNC(C)(C)C)c(O)c2c1C[C@H]1C[C@H]3[C@H](N(C)C)C(O)=C(C(N)=O)C(=O)[C@@]3(O)C(O)=C1C2=O" .
Reply: 0.5

Ask: I am curious: what MIC90 value has been reported for "CN(C)c1cc(CNCC(C)(C)C)c(O)c2c1C[C@H]1C[C@H]3[C@H](N(C)C)C(O)=C(C(N)=O)C(=O)[C@@]3(O)C(O)=C1C2=O" ?
Reply: 4

Ask: Which MIC90 is listed for "CO/N=C(\C(=O)N[C@@H]1C(=O)N2C(C(=O)O)=C(CSc3nc(=O)c(=O)[nH]n3C)CS[C@H]12)c1csc(N)n1" ?
Reply: 1

Ask: I am curious: what MIC90 value has been reported for "C[C@@H](O)[C@H]1C(=O)N2C(C(=O)O)=C(SCCN=CN)C[C@H]12" ?
Reply: 0.5

Ask: Suppose we examine the molecule "NCC[C@H](O)C(=O)N[C@@H]1C[C@H](N)[C@@H](O[C@H]2O[C@H](CN)[C@@H](O)[C@H](O)[C@H]2O)[C@H](O)[C@H]1O[C@H]1O[C@H](CO)[C@@H](O)[C@H](N)[C@H]1O" ; what MIC90 value has been reported?
Reply: 2

###

assay: Phase 1b study in female adults with cystitis, plasma PK; type: in vivo, human; details: female, human, plasma, oral, 300 mg, plasma, Day 5, IV_PO300; read-out: Cmax, Geo. Mean
assay-endpoint: Cmax (ng/mL)
Report as a plain number; the unit ng/mL is understood.

Ask: Report Cmax for CN(C)c1cc(CNCC(C)(C)C)c(O)c2c1C[C@H]1C[C@H]3[C@H](N(C)C)C(O)=C(C(N)=O)C(=O)[C@@]3(O)C(O)=C1C2=O [Compound 1] please.
Reply: 808

###

experiment: Phase 1b study in female adults with cystitis, plasma PK; type: in vivo, human; details: female, human, plasma, intravenous, 200 mg, plasma, Day 1, IV_PO300; read-out: AUC(0-24 hrs), Median
assay-endpoint: AUC(0-t) (ng·h/mL)
Expressed in ng·h/mL, but write only the number.

Ask: Entry under review: CN(C)c1cc(CNCC(C)(C)C)c(O)c2c1C[C@H]1C[C@H]3[C@H](N(C)C)C(O)=C(C(N)=O)C(=O)[C@@]3(O)C(O)=C1C2=O [Compound 1] . Reported AUC(0-t)?
Reply: 14800

###

experiment: Phase 1b study in female adults with cystitis, plasma PK; assay type: in vivo, human; conditions: female, human, plasma, oral, 300 mg, plasma, Day 5, PO300; read-out: Tmax, Geo. Mean
assay-endpoint: Tmax
Put down the number, then write its unit next to it.

Ask: # input compound: "CN(C)c1cc(CNCC(C)(C)C)c(O)c2c1C[C@H]1C[C@H]3[C@H](N(C)C)C(O)=C(C(N)=O)C(=O)[C@@]3(O)C(O)=C1C2=O" ; wanted: its Tmax
Reply: 3.61 h
